Test system: TMD8 cells
Assay overview: 4-day proliferation assay, TMD8
Format: cell-based
Condition: Homo sapiens, 96 h, 4 days incubation, CellTiterGLO, read-out: Anti-proliferation: TMD-8 IC50
Each item that follows carries a reported IC50.
Measurement type: IC50

{"Molecule": "N#Cc1cc(NC(=O)c2cnn(-c3cccc4ncccc34)c2C(F)(F)F)cnc1-n1nccn1 [Cpd 83]", "Assay system": "TMD8 cells", "Value measured": "~8.32 µM"}
{"Molecule": "Cc1cc(NC(=O)c2cnn(-c3cncc4ccccc34)c2C(F)(F)F)cc(C(F)(F)F)n1 [Cpd 73]", "Assay system": "TMD8 cells", "Value measured": "~11.5 µM"}
{"Molecule": "O=C1COc2c(Cl)cc(NC(=O)c3cnn(-c4cncc5ccccc45)c3C(F)(F)F)cc2N1 [Cpd 87]", "Assay system": "TMD8 cells", "Value measured": "~13.8 µM"}

====

System: IL10 secretion by TMD8 ABC-DLBCL cells
Assay overview: Human IL10 Mesoscale assay (TMD-8)
Assay type: cell-based
Condition: Homo sapiens, TMD8; TMD-8 cells, 24 h
Each item that follows carries a reported IC50.

{"Smiles record": "Cc1ncc(-n2ncc(C(=O)Nc3cnc(-n4nccn4)c(Cl)c3)c2C(F)(F)F)c2ccccc12", "Assay system": "IL10 secretion by TMD8 ABC-DLBCL cells", "IC50": "132 nM"}
{"Smiles record": "Cc1cc(NC(=O)c2cnn(-c3cccc4ncccc34)c2C(F)(F)F)cnc1-n1ccn(C)c1=O", "Assay system": "IL10 secretion by TMD8 ABC-DLBCL cells", "IC50": "87 nM"}
{"Smiles record": "O=C(Nc1ccnc(C(F)(F)F)c1)c1cnn(-c2cccc3ccccc23)c1C(F)(F)F", "Assay system": "IL10 secretion by TMD8 ABC-DLBCL cells", "IC50": "138 nM"}
{"Smiles record": "N#Cc1cc(NC(=O)c2cnn(-c3cncc4ccccc34)c2C(F)(F)F)cnc1-n1nccn1", "Assay system": "IL10 secretion by TMD8 ABC-DLBCL cells", "IC50": "~10 nM"}

====

Assay system: full-length MALT1 protein (Strep-MALT1(1-824)-His) (Homo sapiens (Human))
Sequence (Q9UDY8 whole entry): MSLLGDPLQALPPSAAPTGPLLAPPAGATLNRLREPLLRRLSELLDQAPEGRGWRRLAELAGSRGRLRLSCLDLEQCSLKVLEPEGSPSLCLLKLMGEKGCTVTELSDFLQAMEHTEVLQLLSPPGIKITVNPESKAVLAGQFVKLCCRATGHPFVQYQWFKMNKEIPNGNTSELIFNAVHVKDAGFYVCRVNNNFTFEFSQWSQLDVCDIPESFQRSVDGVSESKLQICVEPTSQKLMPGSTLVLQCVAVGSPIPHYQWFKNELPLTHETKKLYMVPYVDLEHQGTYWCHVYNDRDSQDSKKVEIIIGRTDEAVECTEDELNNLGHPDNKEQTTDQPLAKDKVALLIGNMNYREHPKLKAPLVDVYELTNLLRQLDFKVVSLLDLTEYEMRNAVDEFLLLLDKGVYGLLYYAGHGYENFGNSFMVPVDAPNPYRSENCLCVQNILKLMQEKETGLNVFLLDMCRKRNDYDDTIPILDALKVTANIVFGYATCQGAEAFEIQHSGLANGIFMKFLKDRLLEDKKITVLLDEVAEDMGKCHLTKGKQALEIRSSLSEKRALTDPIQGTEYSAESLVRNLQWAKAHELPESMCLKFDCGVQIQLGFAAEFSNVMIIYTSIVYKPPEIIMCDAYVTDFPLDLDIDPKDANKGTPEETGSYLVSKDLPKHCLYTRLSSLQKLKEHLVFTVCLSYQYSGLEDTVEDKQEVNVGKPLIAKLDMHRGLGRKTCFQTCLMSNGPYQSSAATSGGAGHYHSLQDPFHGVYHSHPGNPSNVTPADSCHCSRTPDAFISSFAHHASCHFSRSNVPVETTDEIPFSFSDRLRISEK
Exam item: assign yes to entries whose IC50 is below 100 nM and no to entries at or above 100 nM. Note that a value of exactly 100 nM receives no.

{"Compound": "N#Cc1cc(NC(=O)c2cnn(-c3cnc(N)c4c(F)cccc34)c2C(F)(F)F)cnc1-n1nccn1 [Cpd 111]", "Category": "yes"}
{"Compound": "O=C(Nc1cnc(-n2nccn2)c(Cl)c1)c1cnn(-c2nccc3ccccc23)c1C(F)(F)F [Cpd 57]", "Category": "yes"}
{"Compound": "Cc1ccc(-n2ncc(C(=O)Nc3cnc(-n4nccn4)c(Cl)c3)c2C(F)(F)F)c2cccnc12 [Cpd 28]", "Category": "yes"}
{"Compound": "Cc1nc(-n2nccn2)c(Cl)cc1NC(=O)c1cnn(-c2cncc3ccccc23)c1C(F)(F)F [Cpd 191]", "Category": "yes"}
{"Compound": "Cn1ccc(-c2ncc(NC(=O)c3cnn(-c4ccc(F)c5ncccc45)c3C(F)(F)F)cc2Cl)n1 [Cpd 273]", "Category": "no"}
{"Compound": "Cc1c(C(=O)Nc2cnc(-n3nccn3)c(Cl)c2)cnn1-c1ccnc2ccccc12 [Cpd 64]", "Category": "no"}
{"Compound": "O=C(Nc1cnc(-n2nccn2)c(Cl)c1)c1cnn(-c2cncc3sccc23)c1C(F)(F)F [Cpd 447]", "Category": "no"}
{"Compound": "COC(=O)c1cc(-c2ncc(NC(=O)c3cnn(-c4cccc5ncccc45)c3C(F)(F)F)cc2C#N)nn1C [Cpd 267]", "Category": "no"}
{"Compound": "CN1CCC(Oc2ncc(NC(=O)c3cnn(-c4cncc5ccccc45)c3C(F)(F)F)cc2Cl)CC1 [Cpd 45]", "Category": "no"}
{"Compound": "N#Cc1cc(NC(=O)c2cnn(-c3cnc(N)c4ccccc34)c2C(F)(F)F)ccn1 [Cpd 340]", "Category": "no"}
{"Compound": "COc1cc(-n2ncc(C(=O)Nc3cnc(-n4nccn4)c(Cl)c3)c2C(F)(F)F)c2ccccc2n1 [Cpd 417]", "Category": "no"}
{"Compound": "Cc1ccc(-n2ncc(C(=O)Nc3ccnc(C(F)(F)F)c3)c2C(F)(F)F)c2ccnn12 [Cpd 207]", "Category": "no"}
{"Compound": "O=C(O)c1cn(-c2ncc(NC(=O)c3cnn(-c4cccc5ncccc45)c3C(F)(F)F)cc2Cl)nn1 [Cpd 234]", "Category": "no"}
{"Compound": "COc1ccc2c(-n3ncc(C(=O)Nc4cnc(-n5nccn5)c(Cl)c4)c3C(F)(F)F)cccc2n1 [Cpd 420]", "Category": "yes"}
{"Compound": "Cc1nc(-n2nccn2)c(C#N)cc1NC(=O)c1cnn(-c2cccc3c(=O)[nH]ccc23)c1C(F)(F)F [Cpd 176]", "Category": "yes"}
{"Compound": "COCCOc1ncc(C(F)(F)F)cc1NC(=O)c1cnn(-c2cccc3c(=O)[nH]ccc23)c1C(F)(F)F [Cpd 357]", "Category": "no"}
{"Compound": "N#Cc1cc(NC(=O)c2cnn(-c3nccc4ccoc34)c2C(F)(F)F)cnc1-n1nccn1 [Cpd 99]", "Category": "yes"}
{"Compound": "Cc1cn(-c2nc(C)c(NC(=O)c3cnn(-c4cccc5c(=O)[nH]ccc45)c3C(F)(F)F)cc2Cl)nn1 [Cpd 362]", "Category": "no"}
{"Compound": "N#Cc1cc(NC(=O)c2cnn(-c3ccnc4nccn34)c2C(F)(F)F)cnc1-n1nccn1 [Cpd 250]", "Category": "no"}
{"Compound": "N#Cc1cnnn1-c1ncc(NC(=O)c2cnn(-c3cccc4ncccc34)c2C(F)(F)F)cc1Cl [Cpd 227]", "Category": "no"}
{"Compound": "CC(C)(C)OC(=O)N1CCC1c1nccc2c(-n3ncc(C(=O)Nc4cnc(-n5nccn5)c(Cl)c4)c3C(F)(F)F)cccc12 (centres unmarked) [Cpd 383]", "Category": "no"}
{"Compound": "O=C(Nc1cnc(-n2nccn2)c(Cl)c1)c1cnn(-c2cc(C(F)F)nc3ccccc23)c1C(F)(F)F [Cpd 401]", "Category": "yes"}
{"Compound": "Cc1cnn(-c2ncc(NC(=O)c3cnn(-c4cccc5ncccc45)c3C(F)(F)F)cc2Cl)n1 [Cpd 125]", "Category": "yes"}
